Quick reference for self-splicing fitness (ln) among some sequences
Assay: self-splicing fitness, log relative to wild type (ln ratio); higher = more splicing; Tetrahymena group I intron in knt gene, E. coli kanamycin selection, DiMSum; sequences stand for … in CUCUCU…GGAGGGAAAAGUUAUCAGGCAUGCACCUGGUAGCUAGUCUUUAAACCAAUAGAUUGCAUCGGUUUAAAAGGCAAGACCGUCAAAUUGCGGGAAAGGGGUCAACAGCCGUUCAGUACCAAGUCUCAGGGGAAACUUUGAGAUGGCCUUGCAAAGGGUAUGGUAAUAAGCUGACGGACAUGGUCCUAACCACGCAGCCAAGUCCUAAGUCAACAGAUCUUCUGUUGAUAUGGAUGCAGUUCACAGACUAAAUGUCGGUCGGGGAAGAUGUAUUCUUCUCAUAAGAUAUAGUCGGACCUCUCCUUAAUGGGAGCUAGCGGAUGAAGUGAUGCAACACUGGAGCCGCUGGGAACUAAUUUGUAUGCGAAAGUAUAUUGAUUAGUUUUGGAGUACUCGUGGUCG;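 also: selection with 25 µg/mL kanamycin versus none on LB agar overnight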
Conditions: 30 °C

• CGAUAGCAAUAUUACGACAG = 0.215
• GCAGAGCAAUAUUACGUACA = -2.86
• UCAGAGCAAUAUUACGCAGA = -2.96
• GAGGAGCAAUAUUACGUUUG = -3.33
• AGUUAGCAAUAUUACGAAGG = -4.03

Sample `CGCUAGCAAUAUUACGCACC` ; self-splicing fitness (ln) observed: -1.98

Memo: `AAGAAGCAAUAUUACGUAAU` , reported self-splicing fitness (ln): -1.89

GET /value?item= `UGUCAGCAAUAUUACGUCUU` &field=self-splicing fitness (ln) returns -0.331

Briefly, self-splicing fitness (ln) measured for `ACAGAGCAAUAUUACGUCAC` : -3.39

Entry under test: `GUAGAGCAAUAUUACGCUCU` . Its self-splicing fitness (ln) was -3.31

Kindly note the recorded self-splicing fitness (ln) for `CCUAAGCAAUAUUACGAGGU` , which is -4.68

Summary for this sequence, `UGAAAGCAAUAUUACGGUCA` : self-splicing fitness (ln) is -0.166

Form: sequence = `AUUAAGCAAUAUUACGUUUG` ; self-splicing fitness (ln) = -3.11

// recorded self-splicing fitness (ln) for `CAAUAGCAAUAUUACGGAUA` : -3.03

Entry `GUUGAGCAAUAUUACGAGUG` — recorded self-splicing fitness (ln) = -2.98

Measured self-splicing fitness (ln) of `GGUCAGCAAUAUUACGUAUA` : -1.7

// recorded self-splicing fitness (ln) for `AAGUAGCAAUAUUACGCCUU` : -1.39

The value of self-splicing fitness (ln) measured for the sequence `CUAUAGCAAUAUUACGAUAU` turned out to be -2.53

###

Assay: self-splicing fitness, log relative to wild type (ln ratio); higher = more splicing; Tetrahymena group I intron in knt gene, E. coli kanamycin selection, DiMSum; sequences stand for … in CUCUCU…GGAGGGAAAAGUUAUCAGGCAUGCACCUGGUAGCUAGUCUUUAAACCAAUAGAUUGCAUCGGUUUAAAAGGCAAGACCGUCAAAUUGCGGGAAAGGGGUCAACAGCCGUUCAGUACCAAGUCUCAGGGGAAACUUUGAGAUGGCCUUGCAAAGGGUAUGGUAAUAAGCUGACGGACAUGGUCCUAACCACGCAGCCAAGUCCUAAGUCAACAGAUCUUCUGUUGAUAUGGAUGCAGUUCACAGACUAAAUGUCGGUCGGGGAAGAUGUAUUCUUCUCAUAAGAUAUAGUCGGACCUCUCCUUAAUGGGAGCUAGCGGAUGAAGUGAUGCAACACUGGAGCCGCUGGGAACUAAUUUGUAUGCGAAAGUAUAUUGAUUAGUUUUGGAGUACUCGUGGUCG
Settings: 30 °C
Listed below: self-splicing fitness (ln) values for each entry.
Just the number, please, no unit attached.

# annotated cases, reported self-splicing fitness (ln) shown
* GGGUAGCAAUAUUACGGGAC | -2.79
* CUCCAGCAAUAUUACGCUAC | -4.08
* GGUAAGCAAUAUUACGCGAC | -2.04
* UGGAAGCAAUAUUACGGGGC | -3.24
* CAUUAGCAAUAUUACGGCCU | -3.52
* ACCAAGCAAUAUUACGCCAU | -0.983
* CAUCAGCAAUAUUACGGGCA | -2.51
* ACAAAGCAAUAUUACGCAUA | -2.12
* CAUAAGCAAUAUUACGGACG | 0.133
* GUAUAGCAAUAUUACGACUU | -0.268

`GGAGAGCAAUAUUACGGUCA` yielded self-splicing fitness (ln) of -1.14

# sequence `UAGGAGCAAUAUUACGAUAU` ; its self-splicing fitness (ln) = -3.96

sequence `ACUAAGCAAUAUUACGUUAU` , self-splicing fitness (ln) observed: -3.49

Record summary for `UCCAAGCAAUAUUACGUUAA` : reported self-splicing fitness (ln) = -2.37

Sample `CGAAAGCAAUAUUACGUCGG` ; self-splicing fitness (ln) observed: -0.496

Looking up `GUGAAGCAAUAUUACGACCG` , I found its self-splicing fitness (ln) recorded as -1.63

Quick note, self-splicing fitness (ln) for `UAGAAGCAAUAUUACGGCAC` landed at -2.42

Lab note: measured self-splicing fitness (ln) of `UAUUAGCAAUAUUACGUGAC` was -2.92

###

Test: self-splicing fitness, log relative to wild type (ln ratio); higher = more splicing; Tetrahymena group I intron in knt gene, E. coli kanamycin selection, DiMSum; sequences stand for … in CUCUCU…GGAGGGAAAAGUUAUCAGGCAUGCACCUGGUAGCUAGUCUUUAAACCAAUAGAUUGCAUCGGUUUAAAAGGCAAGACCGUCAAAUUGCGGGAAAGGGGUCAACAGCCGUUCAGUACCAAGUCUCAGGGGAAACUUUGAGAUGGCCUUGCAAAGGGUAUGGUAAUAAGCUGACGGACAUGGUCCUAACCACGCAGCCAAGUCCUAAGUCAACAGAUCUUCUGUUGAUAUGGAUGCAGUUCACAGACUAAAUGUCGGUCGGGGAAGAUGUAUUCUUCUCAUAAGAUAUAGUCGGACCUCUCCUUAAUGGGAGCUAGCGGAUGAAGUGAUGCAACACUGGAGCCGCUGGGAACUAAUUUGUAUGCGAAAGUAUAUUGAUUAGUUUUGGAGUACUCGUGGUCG
Conditions: 30 °C
So basically: self-splicing fitness (ln) at -2 or higher? That is T. Lower than -2? That is F.

Worked set:
• CAACAGCAAUAUUACGUGAC = F
• ACCGAGCAAUAUUACGUGCU = F
• ACAUAGCAAUAUUACGGAGU = F
• CAGUAGCAAUAUUACGUUCA = T
• AGCCAGCAAUAUUACGAACA = F
• CUAUAGCAAUAUUACGCUCU = F

API: above_or_equal(metric=self-splicing fitness (ln), cutoff=-2) for item `UUGAAGCAAUAUUACGAUCA` T

Does self-splicing fitness (ln) meet or surpass -2 for `CUAUAGCAAUAUUACGGCAC` ? F

Form field: self-splicing fitness (ln) at least -2? Entry: `AACAAGCAAUAUUACGGUUU` F

Dear colleague, could you confirm whether `UCCGAGCAAUAUUACGUCUG` has self-splicing fitness (ln) at or above -2? F

Textbook exercise: given the entry `GGGCAGCAAUAUUACGACGA` , state whether its self-splicing fitness (ln) is greater than or equal to -2. T

Quick check, self-splicing fitness (ln) >= -2? `UGCUAGCAAUAUUACGUUUC` F

Quick check, self-splicing fitness (ln) >= -2? `UAAGAGCAAUAUUACGUCAG` F

Is reported self-splicing fitness (ln) greater than or equal to -2 here: `AGUUAGCAAUAUUACGCACA` T

I'd appreciate it if you could say whether `AUUAAGCAAUAUUACGUCCA` has self-splicing fitness (ln) at least equal to -2. T

Does `UGAUAGCAAUAUUACGUAAC` have a reported self-splicing fitness (ln) of at least -2? F

Determine whether this sequence has self-splicing fitness (ln) no lower than -2: `GUACAGCAAUAUUACGGAAU` F

Could you please find out whether `UUGCAGCAAUAUUACGGAGA` has self-splicing fitness (ln) that meets -2 or exceeds it? T

Is the recorded value of self-splicing fitness (ln) equal to or greater than -2 for this sequence? `UUAUAGCAAUAUUACGAUUC` F

Please check the record `CGCUAGCAAUAUUACGAUAG` and state if its self-splicing fitness (ln) is at or above -2. T

###

Assay: self-splicing fitness, log relative to wild type (ln ratio); higher = more splicing; Tetrahymena group I intron in knt gene, E. coli kanamycin selection, DiMSum; sequences stand for … in CUCUCU…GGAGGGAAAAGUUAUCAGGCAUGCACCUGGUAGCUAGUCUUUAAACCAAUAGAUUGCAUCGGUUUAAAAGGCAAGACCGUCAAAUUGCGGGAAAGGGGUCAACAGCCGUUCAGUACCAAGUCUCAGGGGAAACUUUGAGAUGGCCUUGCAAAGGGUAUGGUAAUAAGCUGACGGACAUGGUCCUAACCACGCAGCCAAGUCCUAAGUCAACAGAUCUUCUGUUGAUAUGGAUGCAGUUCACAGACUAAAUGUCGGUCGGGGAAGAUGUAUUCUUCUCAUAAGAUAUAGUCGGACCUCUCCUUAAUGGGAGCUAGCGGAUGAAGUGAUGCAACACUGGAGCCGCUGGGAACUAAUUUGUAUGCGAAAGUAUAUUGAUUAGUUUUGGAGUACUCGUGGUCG
Conditions: 30 °C
recorded_endpoint: self-splicing fitness (ln)
When you answer, write just the number.

Answered cases to consult:
• UCACAGCAAUAUUACGAGAA = -3.16
• AUGCAGCAAUAUUACGCAAU = -2.65
• GAGUAGCAAUAUUACGUAUC = -3.05
• UUGUAGCAAUAUUACGACCG = -0.716
• UCCGAGCAAUAUUACGGUAU = -1.95

The sequence listed as `UUCUAGCAAUAUUACGUACU` has a reported self-splicing fitness (ln) of -3.29

Looking up `CCAAAGCAAUAUUACGGAUA` , I see its self-splicing fitness (ln) listed as -2.87

The measured self-splicing fitness (ln) associated with `AUAGAGCAAUAUUACGAUAA` reads -1.23

For `UUUUAGCAAUAUUACGAGGG` the sequence record lists self-splicing fitness (ln) as -2.9
